- experimental_target: Vhr1 (UniProt P40522)
- Sequence: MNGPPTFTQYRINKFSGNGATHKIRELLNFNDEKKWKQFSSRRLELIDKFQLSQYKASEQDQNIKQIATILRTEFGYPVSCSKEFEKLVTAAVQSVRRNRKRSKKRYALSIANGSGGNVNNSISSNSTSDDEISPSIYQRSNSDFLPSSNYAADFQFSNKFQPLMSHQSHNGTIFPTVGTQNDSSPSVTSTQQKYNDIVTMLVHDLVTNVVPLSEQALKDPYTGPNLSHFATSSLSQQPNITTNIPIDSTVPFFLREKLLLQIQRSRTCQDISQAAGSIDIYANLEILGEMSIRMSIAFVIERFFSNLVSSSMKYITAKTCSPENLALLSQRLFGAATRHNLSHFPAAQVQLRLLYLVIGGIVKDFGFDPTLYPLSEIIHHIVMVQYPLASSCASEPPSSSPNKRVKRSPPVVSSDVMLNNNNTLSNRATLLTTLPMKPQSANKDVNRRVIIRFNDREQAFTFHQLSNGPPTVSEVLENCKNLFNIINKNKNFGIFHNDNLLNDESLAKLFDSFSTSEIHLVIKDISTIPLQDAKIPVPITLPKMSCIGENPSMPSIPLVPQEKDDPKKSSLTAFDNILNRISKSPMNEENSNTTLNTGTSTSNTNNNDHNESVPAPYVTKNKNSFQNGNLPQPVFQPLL
- assay_summary: PBM E-score (8-mer binding enrichment) (E-score (-0.5 to 0.5)); higher = stronger / more preferred TF binding
- setup_conditions: protein concentration: 200 nM; construct: GST-full length
The full ranking holds about 33,000 sequences; the median of “E-score (-0.5 to 0.5)” is about -0.012, and the highest 2% start at about 0.27. Many of the other results were omitted from the sample, so the highest values are more common in it than they were.
# binarize PBM E-score: threshold 0.08 inclusive, high side 1 (yes), low side 0 (no)

[in] Determine whether this sequence has PBM E-score no lower than 0.08: CACCAGCC
[out] 1 (yes)

[in] Given AATGCTGA , state whether its PBM E-score is at least 0.08.
[out] 0 (no)

[in] Kindly determine if PBM E-score recorded for ATTGTGGG is above or exactly 0.08.
[out] 1 (yes)

[in] Exam item: decide whether the reported PBM E-score for CAGTGTGA is at least 0.08.
[out] 1 (yes)

[in] Threshold query (PBM E-score >= 0.08) on AACGAGTC
[out] 1 (yes)

[in] Please tell me: is the sequence TCCATGAA at or over 0.08 in terms of PBM E-score?
[out] 1 (yes)

[in] Would you say CCCATGAC shows PBM E-score at minimum 0.08?
[out] 1 (yes)

[in] I'd appreciate it if you could say whether CAACCGCG has PBM E-score at least equal to 0.08.
[out] 1 (yes)

[in] Would you say CATCTGGA shows PBM E-score at minimum 0.08?
[out] 1 (yes)

[in] Quick check, PBM E-score >= 0.08? ACCATGAG
[out] 0 (no)

[in] Check if PBM E-score >= 0.08 (inclusive). Item: TCTGTTCA
[out] 1 (yes)

[in] Please check the record ACGGTAAC and state if its PBM E-score is at or above 0.08.
[out] 0 (no)

[in] Item GGTGCTAA with PBM E-score of 0.08 or above?
[out] 0 (no)

[in] Decide: is the reported value of PBM E-score for ACGTTATG equal to or greater than 0.08?
[out] 0 (no)

[in] Dear colleague, could you confirm whether AGGAGGGC has PBM E-score at or above 0.08?
[out] 0 (no)

[in] Hi team, for CGTAGTAA , is the recorded PBM E-score at or above 0.08?
[out] 0 (no)

[in] Please tell me: is the sequence GGAATCAA at or over 0.08 in terms of PBM E-score?
[out] 1 (yes)

[in] Dear colleague, could you confirm whether GCCCGCCA has PBM E-score at or above 0.08?
[out] 1 (yes)

[in] # check: PBM E-score of ATGACCCC is greater than or equal to 0.08
[out] 1 (yes)

[in] Has TAGTGTGA a recorded PBM E-score greater than or equal to 0.08?
[out] 1 (yes)

[in] Kindly determine if PBM E-score recorded for CGAATCAC is above or exactly 0.08.
[out] 1 (yes)

[in] Test whether the sequence TCCAGAAA records PBM E-score of 0.08 or higher.
[out] 0 (no)

[in] Is the recorded value of PBM E-score equal to or greater than 0.08 for this sequence? ACCATGAT
[out] 1 (yes)

[in] Record CATATCAG ; criterion: PBM E-score no lower than 0.08. Met?
[out] 0 (no)

[in] Does PBM E-score meet or surpass 0.08 for AGGAGGGA ?
[out] 0 (no)

[in] Is it the case that ATGCATGG has PBM E-score reaching or exceeding 0.08?
[out] 1 (yes)

[in] Form field: PBM E-score at least 0.08? Entry: GAGTGCGC
[out] 0 (no)

[in] Check the entry ATAGCATG : does PBM E-score equal or exceed 0.08?
[out] 0 (no)

[in] For this sequence, is measured PBM E-score 0.08 or higher? GCTCATGA
[out] 1 (yes)

[in] Entry GACGAGAC : is its PBM E-score no less than 0.08?
[out] 0 (no)

[in] Could you tell me if the measured PBM E-score of AGGACGCG reaches 0.08 or more?
[out] 0 (no)

[in] In plain terms: is recorded PBM E-score at least 0.08 for CAAATTGA ?
[out] 0 (no)

[in] Evaluate CCCGAGTA : PBM E-score at minimum 0.08?
[out] 1 (yes)

[in] Given the entry AGCCGCGG , answer whether its PBM E-score meets or surpasses 0.08.
[out] 1 (yes)

[in] Please check the record CCCGAGTC and state if its PBM E-score is at or above 0.08.
[out] 1 (yes)

[in] Please check the record ACATAGCT and state if its PBM E-score is at or above 0.08.
[out] 0 (no)

[in] In plain terms: is recorded PBM E-score at least 0.08 for CAATGGTC ?
[out] 1 (yes)

[in] Could you tell me if the measured PBM E-score of ACAACCCC reaches 0.08 or more?
[out] 0 (no)

[in] Quick check: does CGTAGTCA have PBM E-score greater than or equal to 0.08?
[out] 1 (yes)

[in] Decide: PBM E-score of AGTAGTCG >= 0.08?
[out] 1 (yes)

[in] Evaluate CACCGCCA : PBM E-score at minimum 0.08?
[out] 1 (yes)

[in] Decide: is the reported value of PBM E-score for AGTAGTCC equal to or greater than 0.08?
[out] 0 (no)

[in] Record GCCATGAC ; criterion: PBM E-score no lower than 0.08. Met?
[out] 1 (yes)

[in] Entry GCGAAGAA : is its PBM E-score no less than 0.08?
[out] 0 (no)

[in] Quick check, PBM E-score >= 0.08? CCAGGCAA
[out] 0 (no)

[in] Check this sequence for PBM E-score at or above 0.08: ACTCATGG
[out] 1 (yes)

[in] Check this sequence for PBM E-score at or above 0.08: ATAGCAAG
[out] 1 (yes)

[in] API: above_or_equal(metric=PBM E-score, cutoff=0.08) for item GGCCCAGA
[out] 0 (no)

[in] In plain terms: is recorded PBM E-score at least 0.08 for TCCCGCCA ?
[out] 0 (no)

[in] Say whether TCTGGTCA shows PBM E-score of 0.08 or more.
[out] 0 (no)

[in] Textbook exercise: given the entry AGTAGTAA , state whether its PBM E-score is greater than or equal to 0.08.
[out] 0 (no)

[in] I'd appreciate it if you could say whether ACTCATGA has PBM E-score at least equal to 0.08.
[out] 1 (yes)

[in] Does PBM E-score meet or surpass 0.08 for GCCATGAA ?
[out] 0 (no)

[in] Confirm if PBM E-score reported for the sequence CCCATGAG is 0.08 or above.
[out] 1 (yes)

[in] Dear colleague, could you confirm whether AGTAGTTC has PBM E-score at or above 0.08?
[out] 1 (yes)

[in] Decide: PBM E-score of AGTAGTCA >= 0.08?
[out] 1 (yes)

[in] Check if PBM E-score >= 0.08 (inclusive). Item: AAGTGTGA
[out] 0 (no)

[in] PBM E-score >= 0.08 for CCCGTCGG ?
[out] 0 (no)

[in] Please indicate if the recorded PBM E-score for ATTCATGG meets or exceeds 0.08.
[out] 1 (yes)

[in] Dear colleague, could you confirm whether GCAATGAC has PBM E-score at or above 0.08?
[out] 1 (yes)

[in] Test whether the sequence CTCTCCAG records PBM E-score of 0.08 or higher.
[out] 0 (no)

[in] Entry CGGGGTCC : is its PBM E-score no less than 0.08?
[out] 0 (no)

[in] # check: PBM E-score of ACCCGCGA is greater than or equal to 0.08
[out] 1 (yes)

[in] Please indicate if the recorded PBM E-score for AGTAGTTA meets or exceeds 0.08.
[out] 0 (no)

[in] Tell me whether PBM E-score is at least 0.08 here: CCACTCGG
[out] 0 (no)

[in] Record AACTGGCT ; criterion: PBM E-score no lower than 0.08. Met?
[out] 0 (no)

[in] Kindly determine if PBM E-score recorded for ACAGCACG is above or exactly 0.08.
[out] 1 (yes)

[in] Could you please find out whether CATATCGA has PBM E-score that meets 0.08 or exceeds it?
[out] 1 (yes)

[in] PBM E-score >= 0.08 for AATTCGGA ?
[out] 0 (no)

[in] Is it the case that AGGAGGGG has PBM E-score reaching or exceeding 0.08?
[out] 1 (yes)

[in] Could you tell me if the measured PBM E-score of CTAGTGGA reaches 0.08 or more?
[out] 0 (no)

[in] # bool: PBM E-score of ATTCATGC >= 0.08
[out] 1 (yes)

[in] Exam item: decide whether the reported PBM E-score for CATGCATA is at least 0.08.
[out] 0 (no)

[in] Check the entry GAGTGTGC : does PBM E-score equal or exceed 0.08?
[out] 0 (no)

[in] Evaluate CTCATAAC : PBM E-score at minimum 0.08?
[out] 0 (no)

[in] Please check the record CTCCCTAA and state if its PBM E-score is at or above 0.08.
[out] 0 (no)

[in] Determine whether measured PBM E-score meets or exceeds 0.08 for AGTAGTGA
[out] 1 (yes)

[in] Entry CAGCGCAC : is its PBM E-score no less than 0.08?
[out] 0 (no)

[in] Could you tell me if the measured PBM E-score of GGAACCAA reaches 0.08 or more?
[out] 1 (yes)

[in] # bool: PBM E-score of CATATCGG >= 0.08
[out] 0 (no)

[in] Threshold query (PBM E-score >= 0.08) on AACGAGTT
[out] 0 (no)

[in] Check this sequence for PBM E-score at or above 0.08: GGCTCAAC
[out] 0 (no)

[in] Assess whether reported PBM E-score for CCCATGAA sits at 0.08 or higher.
[out] 0 (no)

[in] Hi team, for CGTAGTCC , is the recorded PBM E-score at or above 0.08?
[out] 0 (no)

[in] Reported PBM E-score reaches at least 0.08 for CTCCCGCC ?
[out] 0 (no)

[in] Assess whether reported PBM E-score for CATAGAAA sits at 0.08 or higher.
[out] 1 (yes)

[in] Reported PBM E-score at or above 0.08? AGTTAGGC
[out] 0 (no)

[in] Item CAACCGCC with PBM E-score of 0.08 or above?
[out] 0 (no)

[in] # bool: PBM E-score of CATGCTCC >= 0.08
[out] 0 (no)
